Give measured IC50 for each item. Keep answers brief.
- measured-on: α-glucosidase (AG) type I from Saccharomyces cerevisiae (Saccharomyces cerevisiae, UniProt P53341)
- Sequence (P53341 whole entry): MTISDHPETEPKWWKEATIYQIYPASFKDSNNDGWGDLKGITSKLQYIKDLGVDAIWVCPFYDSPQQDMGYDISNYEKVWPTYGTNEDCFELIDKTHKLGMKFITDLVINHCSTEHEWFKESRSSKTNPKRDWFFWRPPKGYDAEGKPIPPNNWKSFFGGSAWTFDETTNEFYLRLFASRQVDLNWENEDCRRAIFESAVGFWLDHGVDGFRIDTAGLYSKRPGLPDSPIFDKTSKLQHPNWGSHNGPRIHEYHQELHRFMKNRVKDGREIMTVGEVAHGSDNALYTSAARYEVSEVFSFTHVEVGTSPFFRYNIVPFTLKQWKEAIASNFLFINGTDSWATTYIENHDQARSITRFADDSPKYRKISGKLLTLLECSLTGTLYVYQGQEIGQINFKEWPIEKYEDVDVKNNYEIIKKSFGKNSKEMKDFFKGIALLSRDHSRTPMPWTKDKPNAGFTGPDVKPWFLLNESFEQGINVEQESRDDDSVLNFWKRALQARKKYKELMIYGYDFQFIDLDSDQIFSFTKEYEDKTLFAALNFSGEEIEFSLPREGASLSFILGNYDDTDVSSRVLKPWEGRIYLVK
- test-description: biochemical
- run-parameters: α-Glucosidase IC50 (µM), evaluated range 6.25 µM–1000 µM; mean of n = 3 ± SD
Provide only the numeric value, understood in µM.

Which measured IC50 value corresponds to COc1c(O)cc2oc3cc4c(c(O)c3c(=O)c2c1CC=C(C)C)C=CC(C)(C)O4 [Compound 1, 9-hydroxycalabaxanthone] ?
157

Data request, read-out IC50, for CC(C)=CCc1c(O)c(CC=C(C)C)c2oc3c(O)ccc(O)c3c(=O)c2c1O
124

# IC50 lookup, item CC(C)=CCc1c(O)c(CC=C(C)C)c2oc3c(O)cccc3c(=O)c2c1O
248

---

Assign Ki to each entry below.
API: value field is a number in µM; no unit string.

What value of Ki on α-amylase (AA) type VI-B from porcine pancreas (Sus scrofa, UniProt P00690) does CC(C)=CCc1c(O)cc2oc3cc(O)c(O)c(CC=C(C)C)c3c(=O)c2c1O [Compound 5, γ-mangostin] have?
139

α-amylase (AA) type VI-B from porcine pancreas (Sus scrofa, UniProt P00690) / Ki / COc1c(O)cc2oc3cc(O)c(CC=C(C)C)c(O)c3c(=O)c2c1CC=C(C)C [Compound 4, α-mangostin] : value?
240

Return Ki measured with α-amylase (AA) type VI-B from porcine pancreas (Sus scrofa, UniProt P00690) given this compound: COc1cc2oc3cc(OC)c(OC)c(CC=C(C)C)c3c(=O)c2c(O)c1CC=C(C)C [Compound 6, fuscaxanthone C]
Sequence (P00690 16-511): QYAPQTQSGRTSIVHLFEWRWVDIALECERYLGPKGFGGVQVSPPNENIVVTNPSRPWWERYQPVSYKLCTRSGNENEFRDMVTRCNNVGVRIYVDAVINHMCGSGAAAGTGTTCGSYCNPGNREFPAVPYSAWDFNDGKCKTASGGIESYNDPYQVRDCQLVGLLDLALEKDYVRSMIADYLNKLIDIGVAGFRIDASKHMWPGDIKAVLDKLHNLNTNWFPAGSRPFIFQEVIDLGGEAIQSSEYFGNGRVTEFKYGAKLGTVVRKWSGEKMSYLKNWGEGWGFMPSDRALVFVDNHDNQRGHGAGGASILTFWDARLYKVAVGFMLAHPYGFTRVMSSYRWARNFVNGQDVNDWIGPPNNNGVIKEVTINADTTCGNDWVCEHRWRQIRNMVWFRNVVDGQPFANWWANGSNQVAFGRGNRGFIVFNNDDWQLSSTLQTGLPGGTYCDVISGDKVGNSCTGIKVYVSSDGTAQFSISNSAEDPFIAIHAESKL
28.6

Lab note: need Ki for COc1c(O)cc2oc3cc(O)c(CCC(C)C)c(O)c3c(=O)c2c1CCC(C)C [Compound 9, tetrahydro-α-mangostin] on α-amylase (AA) type VI-B from porcine pancreas (Sus scrofa, UniProt P00690), anyone have it?
90.1

---

- measured-on: α-glucosidase (AG) type I from Saccharomyces cerevisiae (Saccharomyces cerevisiae)
- test-description: biochemical
- Assay type: biochemical
- Set-up: purchased Sigma-Aldrich L-SLBX6245
Could you please report measured pKi for the items listed next?
Remember, pKi is on a log scale: it is -log10 of the molar concentration.

Suppose we examine the compound CC(C)=CCc1c(O)cc2oc3cc(O)c(O)c(CC=C(C)C)c3c(=O)c2c1O ; what pKi value has been reported?
4.07

Report pKi for COc1c(O)cc2oc3cc(O)c(CCC(C)C)c(O)c3c(=O)c2c1CCC(C)C [Compound 9, tetrahydro-α-mangostin] please.
4.47

Given the compound COc1c(O)cc2oc3cc(O)c(CC=C(C)C)c(O)c3c(=O)c2c1CC=C(C)C , what is its reported pKi?
4.50

---

For each of the molecules below, state its IC50.
- measured-on: α-amylase (AA) type VI-B from porcine pancreas (Sus scrofa)
- test-description: AA inhibition assay
- run-parameters: α-Amylase IC50 (µM), evaluated range 6.25 µM–1000 µM; mean of n = 3 ± SD

Query for α-amylase (AA) type VI-B from porcine pancreas (Sus scrofa): what IC50 does the record show for CC1(C)CCc2c(cc3oc4cc(O)c5c(c4c(=O)c3c2O)CCC(C)(C)O5)O1 [Compound 8, BR-xanthone A] ?
> 1000 µM

Item: COc1cc2oc3c(C)c(OC)c(CC=C(C)C)c(O)c3c(=O)c2c(CC=C(C)C)c1OC [Compound 11, 3,6-di-methoxy-4-methyl-α-mangostin] Test system: α-amylase (AA) type VI-B from porcine pancreas (Sus scrofa) Read-out: IC50 Value: ?
> 1000 µM

Lab request: please report IC50 under test system α-amylase (AA) type VI-B from porcine pancreas (Sus scrofa) for COc1c(O)cc2oc3cc4c(c(O)c3c(=O)c2c1CC=C(C)C)CCC(C)(C)O4 [Compound 7, 3-isomangostin]
> 1000 µM

Which IC50 is reported with α-amylase (AA) type VI-B from porcine pancreas (Sus scrofa) for this entry: CCCCCOc1cc2oc3cc(OCCCCC)c(OC)c(CC=C(C)C)c3c(=O)c2c(O)c1CC=C(C)C [Compound 10, 3,6-di-pentoxy-α-mangostin] ?
> 1000 µM
